The following molecules are listed with their measured viability values.
- Procedure Summary: SK-BR-3 cell growth inhibitors, pilot screen, 24 h, human (AID 572);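 further: compound exposure lasted between 18 and 24 h rather than exactly 24 h; 100% = carrier-treated control wells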
- Cond: SK-BR-3 viability, CellTiter-Glo luminescence, at 10 µM, stronger effect = lower value
Quantity: viability (%)

- CC1=NS(=O)(=O)c2cc(Cl)ccc2N1: 119
- CCn1c(CSc2ncccn2)nnc1SCC(=O)N1c2ccccc2CC1C (stereo unspecified): 96
- COc1ccccc1C(=O)NCC(=O)Nc1ccccc1: 104
- CC(=O)N1CN(C2CCCC2)Cc2c1sc1c2CCCC1: 95
- Cc1cc(Cn2ccnc2)c(C)cc1Cn1ccnc1: 82
- CSc1nnc(-c2cnccn2)n1Cc1ccccc1: 96
- O=S(=O)(c1cccc(S(=O)(=O)N2CCC(N3CCCCC3)CC2)c1)N1CCOCC1: 103
- Cc1cc2ccccc2n1CCNC(=O)c1ccc(S(=O)(=O)N2CCOCC2)cc1: 95.5
- N#Cc1ccccc1Cn1c(=O)n(Cc2ccc(C(=O)NCc3ccco3)cc2)c(=O)c2sccc21: 75.5
- NS(=O)(=O)c1cc2c(cc1Cl)NCNS2(=O)=O: 73
- Cc1ccc2nc(-c3ccc(S(=O)(=O)N4CCOCC4)cc3)cn2c1: 138
